tested-system: human TGFßRII (antigen of the Octet experiments) (human, UniProt P37173 23-166)
Sequence (P37173 23-166): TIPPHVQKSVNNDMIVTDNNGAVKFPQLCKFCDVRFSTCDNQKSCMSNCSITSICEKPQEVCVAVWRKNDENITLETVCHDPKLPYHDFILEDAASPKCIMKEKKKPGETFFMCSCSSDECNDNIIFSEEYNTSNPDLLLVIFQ
protocol-summary: BLI (Octet)
measurement-name: pKd
Please treat pKd as minus the base-10 logarithm of the molar concentration.

binder="H1.43 L1 XENP34499 (antibody, V domains shown) VH: QLQVQESGPGLVKPSETLSLTCTVSGGSISNSYFSWGWIRQPPGKGLEWIGTFYYGEKTYYNPSLKSRATISIDTSKSQFSLKLSSVTAADTAVYYCPRGPTMIRGVIDSWGQGTLVTVSS VL: EIVLTQSPATLSLSPGERATLSCRASQSVRSYLAWYQQKPGQAPRLLIYDASNRATGIPARFSGSGSGTDFTLTISSLEPEDFAVYYCQQRSNWPPTFGQGTKVEIK" numeric_value=9.20

Param item = H1.60 L1 XENP34516 (antibody, V domains shown) VH: QLQVQESGPGLVKPSETLSLTCTVSGGSISNSYFSWGWIRQPPGKGLEWIGSFYYGESTYYNPSLKSRATISIDTSKSQFSLKLSSVTAADTAVYYCPRGPTMIRGVIDSWGQGTLVTVSS VL: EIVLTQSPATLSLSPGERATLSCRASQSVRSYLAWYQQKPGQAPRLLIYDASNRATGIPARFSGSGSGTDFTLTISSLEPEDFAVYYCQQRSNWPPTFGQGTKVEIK ; retrieve measured pKd. 8.41

Then what about the binder H1.54 L1 XENP34510 (antibody, V domains shown) VH: QLQVQESGPGLVKPSETLSLTCTVSGGSISNSYFSWGWIRQPPGKGLEWIGSFYSGEKTYYNPSLKSRATISIDTSKSQFSLKLSSVTAADTAVYYCPRGPTMIRGVIDSWGQGTLVTVSS VL: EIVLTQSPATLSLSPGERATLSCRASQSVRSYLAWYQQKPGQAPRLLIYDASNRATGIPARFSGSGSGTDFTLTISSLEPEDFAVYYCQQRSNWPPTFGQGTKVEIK ? 9.18
